- System: SR leukemia
- EXPERIMENTAL_PROTOCOL: NCI tumour cell line growth inhibition, 48 h
Below, each of the compounds is paired with its reported TGI value.
REPORTED_PROPERTY: TGI

| COMPOUND | RESULT_VALUE |
| --- | --- |
| COc1ccc2ccccc2c1C1NC(=O)c2ccccc2N1 (centres undefined) | 1.67 µM |
| CC1=C(c2ccccc2)NC(=S)C(C)C(c2ccccc2)=N1 (centres undefined) | > 100 µM |
| Cc1ccc(/C(O)=C/C(=O)C(=O)NC23CC4CC(CC(C4)C2)C3)cc1 | > 10 µM |
| Cc1csc(/C=C/C(=O)c2nnn(-c3ccnc4c(C(F)(F)F)cccc34)c2C)c1 | > 100 µM |
| CC[C@@]1(C)CCC2c3ccc(O)cc3CC[C@H]2C1C (some centres undefined) | 31.6 µM |
| N#CC(=N)c1ncn(-c2ccc(N)cc2)c1N | > 100 µM |
| Cc1nnc(-c2cccc(-c3ccc(C(=O)NCC4CC4)cc3)c2)o1 | > 25 µM |
| CCOC(=O)C1=NN(c2ccc([N+](=O)[O-])cc2)[C@@]2(C)C[C@]3(c4ccccc4)N(c4ccc([N+](=O)[O-])cc4)N=C(C(=O)OCC)N3c3ccccc3N12 | > 100 µM |
| O=c1[nH]c(=S)[nH]c2c1CN(CCCN1CCOCC1)CN2 | > 100 µM |
| COc1cc(NCCCN=C(N)NC(N)=NC(C)C)c2ncccc2c1 | 45.8 µM |
| COc1ccc(/C(Cl)=C(\C=N/O)c2ccc(OC)c(OC)c2)cc1OC | > 100 µM |
| O=[N+]([O-])C(=C(N1CCOCC1)N1CCOCC1)/C(Cl)=C(\Cl)Br | 37.1 µM |
| O=C(COc1cc(O)c2c(=O)cc(-c3ccccc3)oc2c1)Nc1ccccc1C(F)(F)F | > 100 µM |
| CC(=O)OC(C)(C)/C(C)=C/C(=O)O[C@H]1C(=O)O[C@@H]2C[C@H]3[C@H](C)C(=O)C(O[C@@H]4O[C@H](CO)[C@@H](O)[C@H](O)[C@H]4O)=C[C@]3(C)[C@H]3[C@@H](O)[C@H](O)[C@@]4(C(=O)O)OC[C@]32[C@@H]14 | > 100 µM |
